Assay: chemical genetic growth profiling, strain panel (AID 1159580);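 further: tested at 20 µM; growth read once vehicle control cultures reached saturation at 30 °C; 1 = growth at the plate median or of vehicle wells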
Settings: S. cerevisiae deletion strains, growth OD, locus YDR502C, strain sam2
The whole screen tested about 5,500 compounds, of which about 2,000 (36%) were called active. Roughly 18% stayed inconclusive and do not appear here. No stated cut-off is given here; in the data, active means normalized growth mostly below about 0.91 (no sharp cut-off); inconclusive means no clear call, values can overlap the other calls; inactive means mostly above about 0.92. Some of the results follow.
Output constraint: value belongs to active, inactive

>>> category_label("Cc1c(N(C)CS(=O)(=O)O)c(=O)n(-c2ccccc2)n1C")
"inactive"
>>> category_label("CC1(C)S[C@@H]2[C@H](NC(=O)COc3ccccc3)C(=O)N2[C@H]1C(=O)O")
"inactive"

// outcome(item) with item = CCCCC(=O)N(Cc1ccc(-c2ccccc2-c2nn[nH]n2)cc1)[C@H](C(=O)O)C(C)C
inactive

// outcome(item) with item = CCN(CC)CCNC(=O)COc1ccc(OC)cc1
inactive

// outcome(item) with item = COc1cc(OC)cc(OC)c1
active

// outcome(item) with item = CCCCCN=C(N)N/N=C\c1c[nH]c2ccc(OC)cc12
inactive

// outcome(item) with item = COc1cc(O)c(C)c(O)c1
inactive

// outcome(item) with item = CN(C)c1nc(N(C)C)nc(N(C)C)n1
inactive

// outcome(item) with item = COc1cc(O)c(C(C)=O)c(OC)c1
inactive

// outcome(item) with item = COc1cc2ccc(=O)oc2cc1O
inactive

====

Assay: chemical genetic growth profiling, strain panel (AID 1159580);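 further: tested at 20 µM; growth read once vehicle control cultures reached saturation at 30 °C; 1 = growth at the plate median or of vehicle wells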
Details: S. cerevisiae deletion strains, growth OD, locus YAL030W, strain snc1, stronger effect = lower value
In all, about 5,500 compounds went through this assay and about 2,000 (36%) were called active. Inconclusive results (about 18%) are left out. This is one part of the list.
Observation Type: normalized growth
Write no unit; give the number alone.

Reference set (3 entries):
>>> data_value("O=c1[nH]c2ccccc2n1C1CCN(CCCC(c2ccc(F)cc2)c2ccc(F)cc2)CC1")
0.963
>>> data_value("N#Cc1ccc2c(c1)N(CCCN1CCC(O)CC1)c1ccccc1S2")
0.999
>>> data_value("OCCN1CCN(CCCN2c3ccccc3Sc3ccc(Cl)cc32)CC1")
1.01

Item: O=c1n(CCCN2CCN(c3cccc(Cl)c3)CC2)nc2ccccn12 | normalized growth: 0.988

Item: CN1CCN(CCCN2c3ccccc3Sc3ccc(Cl)cc32)CC1 | normalized growth: 0.922

Item: O=c1[nH]c2ccccc2n1CCCN1CCC(n2c(=O)[nH]c3cc(Cl)ccc32)CC1 | normalized growth: 0.991

====

Experiment: chemical genetic growth profiling, strain panel (AID 1159580);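 further: tested at 20 µM; growth read once vehicle control cultures reached saturation at 30 °C; 1 = growth at the plate median or of vehicle wells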
Details: S. cerevisiae deletion strains, growth OD, locus YEL037C, strain rad23, stronger effect = lower value
Screen size: about 5,500 compounds; about 2,000 (36%) were called active. Not shown: some 18% with an inconclusive outcome. The list shows a part of the results.
Collected normalized growth values appear next to each entry.
Write no unit; give the number alone.

>>> data_value("CCCc1nc(C(C)(C)O)c(C(=O)OCc2oc(=O)oc2C)n1Cc1ccc(-c2ccccc2-c2nn[nH]n2)cc1")
0.968
>>> data_value("COc1c2occc2cc2ccc(=O)oc12")
0.944
>>> data_value("OC[C@@H](O)C(O[C@@H]1O[C@H](CO)[C@H](O)[C@H](O)[C@H]1O)[C@H](O)[C@@H](O)CO (stereo not given in full)")
0.991
>>> data_value("C[N+]1(C)CCc2cc3c(cc2[C@H]1C1OC(=O)c2c1ccc1c2OCO1)OCO3 (stereo not given in full)")
0.99
>>> data_value("COc1cc(OC)c(C(C)=O)c(O)c1C")
0.938

Moving on to the next compound.
Item: COc1cc2ccc(=O)oc2c2ccoc12 | normalized growth: 0.957

Source of measurements: PubChem BioAssay AID1159580
